target-of-assay: catalytic domain of human PARP14 (Homo sapiens (Human), UniProt Q460N5)
Sequence (Q460N5 1611-1801): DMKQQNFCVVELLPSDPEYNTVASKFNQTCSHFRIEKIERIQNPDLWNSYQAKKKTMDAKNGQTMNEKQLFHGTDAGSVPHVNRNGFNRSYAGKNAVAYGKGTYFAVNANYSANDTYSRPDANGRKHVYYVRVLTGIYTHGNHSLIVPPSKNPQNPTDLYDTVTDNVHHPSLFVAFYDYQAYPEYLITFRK
protocol-notes: Enzymatic assay for inhibition of PARP14 (DELFIA, auto-modification with biotin-NAD)
study-conditions: auto-modification of PARP14 by biotin-NAD, 50 nM PARP14, 3 μM biotin-NAD
readout: IC50

Prompt: What measured IC50 is associated with O=c1[nH]c(CSC2CCOCC2)nc2cc(Nc3cncnc3)ccc12 [Example 87] on catalytic domain of human PARP14 (Homo sapiens (Human), UniProt Q460N5)?
Response: 1 to 10 µM

###

target-of-assay: catalytic domain of human PARP14 (Homo sapiens (Human), UniProt Q460N5)
protocol-notes: Enzymatic assay for inhibition of PARP14 (DELFIA, auto-modification with biotin-NAD)
study-conditions: auto-modification of PARP14 by biotin-NAD, 50 nM PARP14, 3 μM biotin-NAD
Quick reference: IC50 of the listed items.

For orientation, consider the following solved cases.
| compound | IC50 |
| --- | --- |
| CC(=O)N[C@H]1C[C@@H](SCc2nc3cc(OCC4CCOCC4)cc(F)c3c(=O)[nH]2)C1 | < 1000 nM |
| O=c1[nH]c(CSC2CCOCC2)nc2cc(Nc3ccccn3)ccc12 | 1000 to 10000 nM |
| CC(=O)N1CCC(Nc2ccc3c(=O)[nH]c(CSC4CCOCC4)nc3c2)C1 (stereo not drawn) | 1000 to 10000 nM |
| O=c1[nH]c(CSC2CCOCC2)nc2cc(NC3CCCC3(F)F)cc(F)c12 (stereo not drawn) | < 1000 nM |

Prompt: Which measured IC50 value corresponds to O=c1[nH]c(CSC2CCOCC2)nc2cc(Nc3nccs3)ccc12 ?
Response: 1000 to 10000 nM

Prompt: Which measured IC50 value corresponds to CN(C)c1ccc2c(=O)[nH]c(CSC3CCOCC3)nc2c1 ?
Response: 1000 to 10000 nM

Prompt: Which measured IC50 value corresponds to O=c1[nH]c(CSC2CCOCC2)nc2cc(OCC3CCS(=O)(=O)CC3)cc(F)c12 ?
Response: < 1000 nM

Prompt: Which measured IC50 value corresponds to Cc1ccc(C(F)(F)F)c2c(=O)[nH]c(CSC3CCC(O)CC3)nc12 (stereo not drawn) ?
Response: < 1000 nM

Prompt: Which measured IC50 value corresponds to O=c1[nH]c(CSC2CCOCC2)nc2cc(NC3CCN(CC(F)(F)F)CC3)cc(F)c12 ?
Response: < 1000 nM
